STUDY TARGET: HiBit-BRG1 fusion protein in stable HeLa cell line expressing HiBit-BRG1 and LgBit (Homo sapiens, UniProt P51532)
Construct: expressed in transfected cells
Sequence (P51532 whole entry, the tested form may be a part): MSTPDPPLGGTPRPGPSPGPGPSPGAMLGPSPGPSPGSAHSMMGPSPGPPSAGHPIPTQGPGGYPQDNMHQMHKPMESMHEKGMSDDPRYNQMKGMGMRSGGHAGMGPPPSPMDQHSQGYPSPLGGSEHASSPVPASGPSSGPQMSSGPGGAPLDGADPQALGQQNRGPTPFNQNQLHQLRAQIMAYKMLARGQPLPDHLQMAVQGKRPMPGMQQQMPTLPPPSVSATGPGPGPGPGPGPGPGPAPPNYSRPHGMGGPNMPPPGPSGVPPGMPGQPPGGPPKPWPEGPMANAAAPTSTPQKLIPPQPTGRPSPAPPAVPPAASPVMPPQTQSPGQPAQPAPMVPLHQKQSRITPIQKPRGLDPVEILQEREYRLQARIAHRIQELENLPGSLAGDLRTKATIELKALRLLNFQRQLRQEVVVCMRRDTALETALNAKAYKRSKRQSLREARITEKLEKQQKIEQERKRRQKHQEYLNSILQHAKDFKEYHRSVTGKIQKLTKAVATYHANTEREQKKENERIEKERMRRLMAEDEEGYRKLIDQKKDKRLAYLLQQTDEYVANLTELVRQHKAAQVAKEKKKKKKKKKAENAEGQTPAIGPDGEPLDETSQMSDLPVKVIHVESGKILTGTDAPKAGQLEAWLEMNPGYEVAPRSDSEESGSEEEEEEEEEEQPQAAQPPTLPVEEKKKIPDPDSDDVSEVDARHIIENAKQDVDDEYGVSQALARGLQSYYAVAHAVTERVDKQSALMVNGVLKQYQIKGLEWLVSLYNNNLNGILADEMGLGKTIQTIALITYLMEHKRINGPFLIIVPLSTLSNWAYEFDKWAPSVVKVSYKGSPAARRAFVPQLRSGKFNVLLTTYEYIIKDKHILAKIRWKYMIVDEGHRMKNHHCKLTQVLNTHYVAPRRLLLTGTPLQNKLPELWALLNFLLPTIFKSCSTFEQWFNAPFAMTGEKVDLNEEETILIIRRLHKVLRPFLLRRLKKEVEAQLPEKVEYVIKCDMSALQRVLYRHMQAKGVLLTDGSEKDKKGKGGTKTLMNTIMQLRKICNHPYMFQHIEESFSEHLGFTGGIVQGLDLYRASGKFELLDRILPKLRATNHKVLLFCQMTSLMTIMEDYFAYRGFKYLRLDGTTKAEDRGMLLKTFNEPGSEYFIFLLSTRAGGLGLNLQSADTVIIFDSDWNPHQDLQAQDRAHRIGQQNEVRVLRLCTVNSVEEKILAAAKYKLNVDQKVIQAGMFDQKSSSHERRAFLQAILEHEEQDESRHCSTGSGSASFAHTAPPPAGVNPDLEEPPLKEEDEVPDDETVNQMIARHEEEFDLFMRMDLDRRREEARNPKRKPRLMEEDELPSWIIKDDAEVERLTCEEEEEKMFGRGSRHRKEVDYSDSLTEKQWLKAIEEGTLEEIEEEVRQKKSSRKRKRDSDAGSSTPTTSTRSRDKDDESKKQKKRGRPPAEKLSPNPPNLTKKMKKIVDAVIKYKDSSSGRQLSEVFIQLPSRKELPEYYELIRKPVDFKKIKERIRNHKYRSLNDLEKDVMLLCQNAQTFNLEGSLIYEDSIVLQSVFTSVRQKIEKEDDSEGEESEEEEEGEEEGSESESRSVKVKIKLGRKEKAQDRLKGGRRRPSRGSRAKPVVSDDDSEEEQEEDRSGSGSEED
TEST METHOD NOTES: HiBiT-BRG1 cell-based degradation assay (Nano-Glo HiBiT, 24 h)
RUN CONDITIONS: HeLa HiBit-BRG1/LgBit cells, top dose 30 μM, read-out: BRG1 HiBit Degradation Maximum (%)
Please go through the items and note down their Dmax.

Query string: Entry CC(C)[C@@H](C(=O)N1C[C@H](O)C[C@H]1C(=O)N[C@@H](C)c1ccc(F)cc1)n1cc(-c2ccc3nnc(-c4cccc(F)c4O)cc3c2)nn1 [Compound 177] has what Dmax?
Result string: > 75%

Query string: What Dmax value was documented for this compound, COc1cc2nnc(-c3ccccc3O)cc2cc1C1CN(c2ncc(-c3cc([C@@H](C(=O)N4C[C@H](O)C[C@H]4C(=O)N[C@@H](C)c4ccc(-c5scnc5C)cc4)C(C)C)on3)cn2)C1 [Compound 23] ?
Result string: < 50%

Query string: Form field: reported Dmax of Cc1ncsc1-c1ccc([C@H](C)NC(=O)[C@@H]2C[C@@H](O)CN2C(=O)C(C(C)C)n2cc(N3CCC34CN(c3ccc5cc(-c6ccccc6O)nnc5c3)C4)nn2)cc1 (some centres unmarked) [Compound 265]
Result string: > 75%

Query string: Need Dmax of CC(C)[C@@H](C(=O)N1C[C@H](O)C[C@H]1C(=O)N[C@@H](C)c1ccc(Br)cc1)n1cc(-c2ccc3nnc(-c4cccc(F)c4O)cc3c2)nn1 [Compound 178] , thanks.
Result string: > 75%

Query string: Dear colleague, I am looking for the recorded Dmax of the following compound: Cc1cc(-c2cc([C@H](C(=O)N3C[C@H](O)C[C@H]3C(=O)N[C@@H](C)c3ccc(-c4scnc4C)cc3)C(C)C)on2)cnc1N1CCC(c2ccc3nnc(-c4ccccc4O)cc3c2)CC1 [Compound 64]
Result string: > 50%
